melting point reference
Observation type: melting point

1) COc1ccc(CNc2nc(-c3ccc(Br)cc3)nn3c(C)nc(C)c23)cc1OC 119 to 122 °C
2) CCCc1nc(C)c2c(Nc3cc(OC)c(OC)c(OC)c3)nc(-c3ccccc3OCC)nn12 112 to 114 °C
3) COc1ccc(-c2nc(Nc3ccc(OC)c(OC)c3)c3c(C)nc(C)n3n2)cc1Cl 220 to 222 °C
4) CCCc1nc(C)c2c(Sc3ccc(NC(C)=O)cc3)nc(-c3ccccc3OCC)nn12 226 to 228 °C
5) COc1cc(Nc2nc(-c3ccc(Br)cc3)nn3c(C)nc(C)c23)cc(OC)c1OC 219 to 220 °C
6) COc1cc(OC)cc(-c2nc(Nc3cc(OC)c(OC)c(OC)c3)c3c(C)nc(C)n3n2)c1 176 to 179 °C
7) COc1ccc(-c2nc(Nc3cc(OC)c(OC)c(OC)c3)c3c(C)nc(C)n3n2)cc1Cl 194 to 195 °C
8) COc1cc(Nc2nc(-c3ccc(C)cc3)nn3c(C)nc(C)c23)cc(OC)c1OC 212 to 214 °C
9) CCOc1ccc(CCNc2nc(-c3ccc(Br)cc3)nn3c(C)nc(C)c23)cc1OC 188 to 190 °C
10) CCCc1nc(C)c2c(NCc3ccc(OC)cc3OC)nc(-c3ccccc3OCC)nn12 98 to 99 °C
11) COc1ccc(Nc2nc(-c3ccc(OC)c(OC)c3)nn3c(C)nc(C)c23)cc1Cl 195 °C
12) COc1cc(OC)cc(-c2nc(Oc3cc(OC)c(OC)c(OC)c3)c3c(C)nc(C)n3n2)c1 220 °C
13) COc1ccc(Nc2nc(-c3ccc(OC)c(OC)c3)nn3c(C4CCCC4)nc(C)c23)c(OC)c1 244 °C
